Molecular target: Mannose-6-phosphate isomerase (Homo sapiens)
Assay: MPI activation at elevated mannose 6-phosphate – biochemical, fluorescence intensity, near-saturating mannose 6-phosphate, primary screen (AID 1216)
Conditions: coupled PMI enzyme assay, resazurin fluorescence, 20 min; at 20 µM; active compounds read high; 1 = untreated enzyme, 0 = substrate-free blank
Among all 190,000 compounds or so, about 660 (0.35%) were called active. The list comes from a sample in which actives are over-represented; it also holds close analogues and randomly drawn compounds.
observed.property: activation factor
Just the number, please.

Param item: O=C(CSc1nnc(-c2ccc([N+](=O)[O-])cc2)o1)Nc1ccccn1 ; param system: Mannose-6-phosphate isomerase (Homo sapiens); output activation factor: 1

Param item: COc1cccc(-n2cc3c(c2-c2ccccc2)c(=O)n(C)c(=O)n3C)c1 ; param system: Mannose-6-phosphate isomerase (Homo sapiens); output activation factor: 1

Param item: O=C(NNC(=O)c1ccccc1[N+](=O)[O-])Nc1ccccc1C(F)(F)F ; param system: Mannose-6-phosphate isomerase (Homo sapiens); output activation factor: 1

###

Target: Mannose-6-phosphate isomerase (Homo sapiens)
Experiment: MPI activation at elevated mannose 6-phosphate – biochemical, fluorescence intensity, near-saturating mannose 6-phosphate, primary screen (AID 1216)
Conditions: coupled PMI enzyme assay, resazurin fluorescence, 20 min; at 20 µM; 1 = untreated enzyme, 0 = substrate-free blank
Out of some 190,000 compounds screened, about 660 (0.35%) were called active.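 How the source made its calls: active means activation factor of 2 or more at 20 µM; inactive means the rest.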 This excerpt belongs to a sample that is enriched for actives.
// classify into 1.0 (active), 0.0 (inactive)

So what was the verdict on Cc1ccc(-c2nn(-c3cccc(F)c3)cc2CNCCc2ccncc2)o1 in this test?
0.0

So what was the verdict on Cc1ccc2nc(NCCCNC(=O)c3cnccn3)c(C#N)cc2c1 in this test?
0.0

So what was the verdict on Cc1ccc(-c2nc(C)sc2CC(=O)OCC(=O)Nc2c(F)cccc2F)cc1 in this test?
0.0

So what was the verdict on CCCSc1nc2c(c(=O)n(C)c(=O)n2C)n1Cc1ccc(C)cc1 in this test?
0.0

So what was the verdict on CC(CCO)Nc1nc2c([nH]1)c(=O)n(C)c(=O)n2C (stereo not drawn) in this test?
0.0

So what was the verdict on O=C1CC(NNc2ccccc2)C(=O)N1c1cccc(Cl)c1 (stereo not drawn) in this test?
1.0

So what was the verdict on COc1ccc(C(=O)Nc2ccc(F)cc2F)cc1 in this test?
1.0

So what was the verdict on O=C(CC1C(=O)NCCN1CC(c1ccccc1)c1ccccc1)NCCc1cn[nH]c1 (stereo not drawn) in this test?
0.0

So what was the verdict on Cc1ccc(OCc2n[nH]c(=S)n2-c2ccc(C)cc2)cc1 in this test?
0.0

So what was the verdict on O=C(Nc1ccc([N+](=O)[O-])cc1)C1CC12CCC2 (stereo not drawn) in this test?
0.0

So what was the verdict on Cc1c(-c2cccc(Cl)c2)nc2ccccc2c1C(=O)OCC(=O)N(C)C1CCS(=O)(=O)C1 (stereo not drawn) in this test?
0.0

So what was the verdict on O=C(CO/N=C/c1ccccc1OC(F)F)NC1CCCC1 in this test?
0.0

So what was the verdict on CCC(CC)C(=O)Nc1ccc(S(=O)(=O)Nc2nccs2)cc1 in this test?
0.0

###

Molecular target: Mannose-6-phosphate isomerase (Homo sapiens) (UniProt P34949)
Sequence (P34949 whole entry, looked up): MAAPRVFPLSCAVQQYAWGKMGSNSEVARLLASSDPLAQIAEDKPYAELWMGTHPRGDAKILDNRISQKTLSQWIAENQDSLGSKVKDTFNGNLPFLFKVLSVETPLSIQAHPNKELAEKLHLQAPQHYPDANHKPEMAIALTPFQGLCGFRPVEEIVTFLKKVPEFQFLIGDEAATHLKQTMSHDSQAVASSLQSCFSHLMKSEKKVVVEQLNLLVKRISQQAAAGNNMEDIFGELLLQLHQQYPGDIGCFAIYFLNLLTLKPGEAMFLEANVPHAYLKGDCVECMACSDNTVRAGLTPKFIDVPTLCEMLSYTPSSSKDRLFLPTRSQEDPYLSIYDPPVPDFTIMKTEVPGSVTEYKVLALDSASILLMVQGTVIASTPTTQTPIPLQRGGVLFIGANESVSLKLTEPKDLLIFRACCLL
Assay: MPI activation at elevated mannose 6-phosphate – biochemical, fluorescence intensity, near-saturating mannose 6-phosphate, primary screen (AID 1216)
Settings: coupled PMI enzyme assay, resazurin fluorescence, 20 min; at 20 µM; 1 = untreated enzyme, 0 = substrate-free blank
In all, about 190,000 compounds went through this assay and about 660 (0.35%) were called active.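 The calls were made as follows: active = activation factor of 2 or more at 20 µM; inactive = the rest.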 Many of the other results were omitted from the sample, so actives are more common in it than they were.
// classify into active, inactive

So what was the verdict on O=S1(=O)CC/C(=N\Nc2ccc(F)cc2)c2ccsc21 in this test?
active

So what was the verdict on O=C(CN1CCN(c2ccccc2F)CC1)c1ccc2c(c1)OCO2 in this test?
active

So what was the verdict on CCOC(=O)C1=C(CN2CCCCCC2)NC(=O)NC1c1cccc([N+](=O)[O-])c1 (stereo not given) in this test?
inactive

So what was the verdict on Cc1ccc(N(CCC(=O)O)S(=O)(=O)c2cccc(C(F)(F)F)c2)cc1 in this test?
inactive

So what was the verdict on COc1ccccc1NC(=O)C1=C(C)Nc2nc3ccccc3n2C1c1cccs1 (stereo not given) in this test?
inactive

So what was the verdict on Cc1cc(OCCCN2CCN(Cc3ccccc3)CC2)ccc1[N+](=O)[O-] in this test?
inactive

So what was the verdict on COc1ccc(-n2nc(C(=O)Nc3cc(OC)c(OC)c(OC)c3)c3ccccc3c2=O)c(OC)c1 in this test?
inactive

So what was the verdict on O=C(NN=C1CCC(=NNC(=O)c2cccnc2)CC1)c1cccnc1 in this test?
active

So what was the verdict on CCCCn1c(O)c(N=NC(=O)Cn2c(C(F)(F)F)nc3ccccc32)c2ccccc21 in this test?
inactive

So what was the verdict on COc1ccc(NC(=O)COc2ccc(C(=O)OCC(=O)N(C)C3CCS(=O)(=O)C3)cc2OC)cc1 (stereo not given) in this test?
inactive

So what was the verdict on Cc1scc(C(=O)NNC(=S)NCc2ccccc2)c1C in this test?
inactive

So what was the verdict on COC(=O)Cc1nc2ccccc2[nH]1 in this test?
inactive

So what was the verdict on CCC(=O)NC(=Nc1nc2ccccc2s1)NC(=O)CC in this test?
inactive

So what was the verdict on CC(=O)Nc1sc2c(c1C(c1cccc(F)c1)N1CCN(CCO)CC1)CCCC2 (stereo not given) in this test?
inactive

So what was the verdict on O=C(CN1CCN(CC(=O)Nc2ccc3c(c2)OCO3)CC1)Nc1ccc(F)cc1 in this test?
inactive

So what was the verdict on O=C(Nc1ccccc1N1CCN(C(=O)c2ccccc2)CC1)c1ccc2c(c1)OCO2 in this test?
inactive

So what was the verdict on COc1cc(C(=O)OCc2ccc([N+](=O)[O-])cc2)cc(OC)c1OC in this test?
active

So what was the verdict on CCN(C(=O)COC(=O)c1cc(NS(=O)(=O)c2ccc(Cl)c([N+](=O)[O-])c2)ccc1O)C1CCCCC1 in this test?
inactive

So what was the verdict on Cc1cc(C2=NNC(=Nc3ccc(S(=O)(=O)N4CCOCC4)cc3)SC2)c(C)n1CC1CCCO1 (stereo not given) in this test?
active

So what was the verdict on O=C(COC(=O)c1ccc(F)cc1)Nc1nc2ccc([N+](=O)[O-])cc2s1 in this test?
inactive

So what was the verdict on COC(=O)c1[nH]c2ccccc2c1NC(=O)CN1CCCc2ccccc21 in this test?
inactive

So what was the verdict on COc1ccc(NC(=O)c2sc(N3CCOCC3)nc2-c2ccccc2)c(OC)c1 in this test?
inactive

So what was the verdict on COc1ccc2c(-c3ccccc3)cc(SCC(=O)N(C)C3CCS(=O)(=O)C3)nc2c1 (stereo not given) in this test?
inactive

So what was the verdict on O=C(NNC(=O)c1cccnc1)Nc1ccccc1 in this test?
inactive

So what was the verdict on S=C(Nc1ccc(Br)cc1Cl)N1CCC2(CC1)OCCO2 in this test?
inactive

So what was the verdict on Cc1ccc(CNC(=O)COc2ccc3c(c2)CCC3)cc1 in this test?
inactive

So what was the verdict on COc1cc(/C=C(/NC(=O)c2ccc(Cl)cc2Cl)C(=O)O)cc(OC)c1OC in this test?
inactive

So what was the verdict on C=CCn1c(C)cc(C2=NNC(=NCC)SC2)c1C in this test?
inactive

So what was the verdict on Cc1cc(C)c2nc(SCC(=O)N(C)C3CCS(=O)(=O)C3)cc(C)c2c1 (stereo not given) in this test?
active

So what was the verdict on S=c1[nH]nc(Nc2ccccc2)s1 in this test?
active

So what was the verdict on Cc1ccc(NC(=O)NC(=O)N(C2CCCCC2)S(=O)(=O)c2ccccc2)cc1 in this test?
inactive

So what was the verdict on Cc1cc(C(=O)COC(=O)C2CC2)c(C)n1-c1ccc(F)cc1 in this test?
inactive

So what was the verdict on O=C(Nc1cnccn1)c1cccnc1 in this test?
inactive

So what was the verdict on CC(C)(C)C(=O)c1cnc(Nc2ccccc2)s1 in this test?
inactive

So what was the verdict on Cn1cccc1/C=N/NC(=O)c1ccc(OC(F)(F)C(F)F)cc1 in this test?
inactive

###

Target: Mannose-6-phosphate isomerase (Homo sapiens)
Assay: MPI activation at elevated mannose 6-phosphate – biochemical, fluorescence intensity, near-saturating mannose 6-phosphate, primary screen (AID 1216)
Details: coupled PMI enzyme assay, resazurin fluorescence, 20 min; at 20 µM; active compounds read high; 1 = untreated enzyme, 0 = substrate-free blank
In all, about 190,000 compounds went through this assay and about 660 (0.35%) were called active. The sample holds actives, similar compounds and a random draw of the others, so the mix is not that of the screen.
Each entry gets label 0 if its activation factor stays under 1, and label 1 if its activation factor is 1 or above.

Please indicate if the recorded activation factor for C=CCc1ccccc1OCC(=O)N/N=C/c1ccccc1OCC meets or exceeds 1.
label 0

Please indicate if the recorded activation factor for Cc1cc(Cl)ccc1C(=O)C1CCCN(C(=O)CCN2CCCO2)C1 (stereo unspecified) meets or exceeds 1.
label 1

Please indicate if the recorded activation factor for Cc1ccc(N/C=C/C(=O)c2ccccc2)cc1C meets or exceeds 1.
label 1

Please indicate if the recorded activation factor for O=C(/C=C\NCC(=O)c1ccccc1)c1ccccc1 meets or exceeds 1.
label 1

Please indicate if the recorded activation factor for CCCCN=C1C([N+](=O)[O-])=CC=C2C1=NC1(CCCCC1)N2O meets or exceeds 1.
label 0

Please indicate if the recorded activation factor for Cc1ccc(NC(=O)N2CCSc3ccccc32)cc1 meets or exceeds 1.
label 0

Please indicate if the recorded activation factor for CCc1cccc(CC)c1NC(=S)NCc1ccc2[nH]c(C)cc2c1 meets or exceeds 1.
label 0

Please indicate if the recorded activation factor for O=C(/C=C/c1ccc(Cl)c([N+](=O)[O-])c1)c1cccnc1 meets or exceeds 1.
label 1

Please indicate if the recorded activation factor for Cc1ccnc(NC(=O)CCC(=O)N(CC(=O)NCc2ccccc2)Cc2ccco2)c1 meets or exceeds 1.
label 0

Please indicate if the recorded activation factor for COc1cccc(CN2CCNC(=O)C2CC(=O)N(C)CCc2ccccn2)c1 (stereo unspecified) meets or exceeds 1.
label 0

Please indicate if the recorded activation factor for CC(C)(C)C(=O)CSc1nc2ccccc2o1 meets or exceeds 1.
label 0

Please indicate if the recorded activation factor for Cn1cnnc1Sc1ccc(S(C)(=O)=O)cc1[N+](=O)[O-] meets or exceeds 1.
label 0

Please indicate if the recorded activation factor for CCc1cc2cc(OC)ccc2nc1SCC(=O)Nc1cc(OC)c(OC)cc1C(=O)O meets or exceeds 1.
label 0

Reference source: PubChem BioAssay AID1216
